- ASSAY PROCEDURE: Inhibition of GSK3-beta in human PC3M cells by ELISA
The threshold is 2 µM. Values of IC50 beneath it are tagged class 1; values meeting or exceeding it are tagged class 0.

## Task # strict comparison: is reported IC50 < 2 µM? input = "NC1CCN(c2ncnc3[nH]ccc23)CC1"
## Result class 0

## Task # strict comparison: is reported IC50 < 2 µM? input = "NCC1(c2ccc(Cl)cc2)CCN(c2ncnc3nc[nH]c23)CC1"
## Result class 1

## Task # strict comparison: is reported IC50 < 2 µM? input = "NCC1(c2ccc(Cl)cc2)CCN(c2ccnc3[nH]ccc23)CC1"
## Result class 1

## Task # strict comparison: is reported IC50 < 2 µM? input = "NC1CCN(c2ncnc3n[nH]cc23)CC1"
## Result class 0

## Task # strict comparison: is reported IC50 < 2 µM? input = NC(c1ccccc1)C1CCN(c2ncnc3[nH]ccc23)CC1 (stereo not given)
## Result class 0

## Task # strict comparison: is reported IC50 < 2 µM? input = "NC1(c2ccc(Cl)cc2)CCN(c2ncnc3[nH]ccc23)CC1"
## Result class 1

## Task # strict comparison: is reported IC50 < 2 µM? input = "NCC1CCN(c2ncnc3n[nH]cc23)CC1"
## Result class 0

## Task # strict comparison: is reported IC50 < 2 µM? input = "NCC1(Cc2ccc(Cl)cc2)CCN(c2ncnc3nc[nH]c23)CC1"
## Result class 1

## Task # strict comparison: is reported IC50 < 2 µM? input = "NCC1CCN(c2ncnc3[nH]ccc23)CC1"
## Result class 0

Reference source: BindingDB's records for doi:10.1021/jm701437d
